Data origin: ChEMBL document CHEMBL1150492

test-name: In vitro effect on microtubule assembly relative to that of Taxol, expressed as ED50/ED50 (Taxol=1)
Assay type: functional
measurement-name: ED50 ratio
Returns: the value as a bare number; no unit string appended.

Query string: Look up and state reported ED50 ratio for `CC(=O)O[C@H]1C(=O)[C@@]2(C)[C@H]([C@H](OC(=O)c3ccccc3)[C@]3(O)C[C@H](OC(=O)[C@H](O)[C@@H](NC(=O)c4ccccc4C)c4ccccc4)C(C)=C1C3(C)C)[C@]1(OC(C)=O)CO[C@@H]1C[C@@H]2O`
Result string: 1.9

Query string: Look up and state reported ED50 ratio for `CC(=O)O[C@H]1C(=O)[C@@]2(C)[C@H]([C@H](OC(=O)c3ccccc3)[C@]3(O)C[C@H](OC(=O)[C@H](O)[C@@H](NC(=O)c4cccc(Cl)c4)c4ccccc4)C(C)=C1C3(C)C)[C@]1(OC(C)=O)CO[C@@H]1C[C@@H]2O`
Result string: 2

Query string: Look up and state reported ED50 ratio for `CC(=O)O[C@H]1C(=O)[C@@]2(C)[C@H]([C@H](OC(=O)c3ccccc3)[C@]3(O)C[C@H](OC(=O)[C@H](O)[C@@H](NC(=O)c4ccc(Cl)cc4)c4ccccc4)C(C)=C1C3(C)C)[C@]1(OC(C)=O)CO[C@@H]1C[C@@H]2O`
Result string: 2.4

---

test-name: In vitro effect on microtubule assembly relative to that of Taxol, expressed as ED50/ED50 (Taxol=1)
Type: functional
Give measured ED50 ratio for each item. Keep answers brief.
Returns: the value as a bare number; no unit string appended.

Query string: Look up and state reported ED50 ratio for `CC(=O)O[C@H]1C(=O)[C@@]2(C)[C@H]([C@H](OC(=O)c3ccccc3)[C@]3(O)C[C@H](OC(=O)[C@H](O)[C@@H](N)c4ccccc4)C(C)=C1C3(C)C)[C@]1(OC(C)=O)CO[C@@H]1C[C@@H]2O`
Result string: 21

Query string: Look up and state reported ED50 ratio for `CC(=O)O[C@H]1C(=O)[C@@]2(C)[C@H]([C@H](OC(=O)c3ccccc3)[C@]3(O)C[C@H](OC(=O)[C@H](O)[C@@H](NC(=O)c4ccccc4)c4ccccc4)C(C)=C1C3(C)C)[C@]1(OC(C)=O)CO[C@@H]1C[C@@H]2O`
Result string: 1

Query string: Look up and state reported ED50 ratio for `CC(=O)O[C@H]1C(=O)[C@@]2(C)[C@H]([C@H](OC(=O)c3ccccc3)[C@]3(O)C[C@H](OC(=O)[C@H](O)[C@@H](NC(=O)c4ccc(Cl)c(Cl)c4)c4ccccc4)C(C)=C1C3(C)C)[C@]1(OC(C)=O)CO[C@@H]1C[C@@H]2O`
Result string: 2.1

Query string: Look up and state reported ED50 ratio for `CC(=O)O[C@H]1C(=O)[C@@]2(C)[C@H]([C@H](OC(=O)c3ccccc3)[C@]3(O)C[C@H](OC(=O)[C@H](O)[C@@H](NC(=O)c4cccc(N(C)C)c4)c4ccccc4)C(C)=C1C3(C)C)[C@]1(OC(C)=O)CO[C@@H]1C[C@@H]2O`
Result string: 1.4

Query string: Look up and state reported ED50 ratio for `COc1ccc(C(=O)N[C@@H](c2ccccc2)[C@@H](O)C(=O)O[C@H]2C[C@@]3(O)[C@@H](OC(=O)c4ccccc4)[C@@H]4[C@]5(OC(C)=O)CO[C@@H]5C[C@H](O)[C@@]4(C)C(=O)[C@H](OC(C)=O)C(=C2C)C3(C)C)cc1`
Result string: 0.6

Query string: Look up and state reported ED50 ratio for `CC(=O)O[C@H]1C(=O)[C@@]2(C)[C@H]([C@H](OC(=O)c3ccccc3)[C@]3(O)C[C@H](OC(=O)[C@H](O)[C@@H](NC(=O)c4ccc(C)cc4)c4ccccc4)C(C)=C1C3(C)C)[C@]1(OC(C)=O)CO[C@@H]1C[C@@H]2O`
Result string: 1.6

Query string: Look up and state reported ED50 ratio for `CC(=O)O[C@H]1C(=O)[C@@]2(C)[C@H]([C@H](OC(=O)c3ccccc3)[C@]3(O)C[C@H](OC(=O)[C@H](O)[C@@H](NC(=O)c4ccc(F)cc4)c4ccccc4)C(C)=C1C3(C)C)[C@]1(OC(C)=O)CO[C@@H]1C[C@@H]2O`
Result string: 1.2

Query string: Look up and state reported ED50 ratio for `CC(=O)O[C@H]1C(=O)[C@@]2(C)[C@H]([C@H](OC(=O)c3ccccc3)[C@]3(O)C[C@H](OC(=O)[C@H](O)[C@@H](NC(=O)c4ccc([N+](=O)[O-])cc4)c4ccccc4)C(C)=C1C3(C)C)[C@]1(OC(C)=O)CO[C@@H]1C[C@@H]2O`
Result string: 2
